test: NCI Yeast Anticancer Drug Screen. Data for the wt2 strain (AID 169); conditions: S. cerevisiae wt2 strain growth inhibition; at 1.2 µM
Compounds without any hit were thinned out: in the full panel of roughly 79,000, 15% have a hit. Calls of active or inactive are those of the source. Cut-off read from the data, not from the text of the source: active = growth inhibition above about 70%; inactive = the rest.
Outcomes: yes (active), no (inactive)

>>> group_label("Cn1c(-c2ccc(/C=N\\N3CCN(/N=C/c4ccc(-c5c[n+]6ccccc6n5C)cc4)CC3)cc2)c[n+]2ccccc12")
"no"
>>> group_label("c1ccc2c(OCC3CO3)cccc2c1 (stereo unspecified)")
"no"
>>> group_label("CN(C)N=Nc1ccccc1C(=O)NC#N")
"no"
>>> group_label("Cc1cccc2c1nc1ccc(Cl)cc1[n+]2C")
"no"
>>> group_label("COc1ccc(/C=C/C(=O)c2ccccc2)cc1OC")
"no"
>>> group_label("CC(C)(C)C1=CC(=CC=C2C=CN(CCCCCCCCCCCO)C=C2)C=C(C(C)(C)C)C1=O")
"no"
>>> group_label("Clc1ccc(NCNC2Nc3ccccc3N2)cc1Cl")
"no"
>>> group_label("CCOC(=O)c1[nH]cc(C)c1-c1cccn1-c1ccc(Cl)cc1[N+](=O)[O-]")
"no"
>>> group_label("COC(=O)Oc1cc(Cl)c(Cl)cc1Cl")
"no"
>>> group_label("CCCCCCCCCCCCCCCCCC(=O)NCCCN(C)C")
"no"
>>> group_label("O=c1ssc(=Nc2ccccc2)n1-c1ccccc1")
"no"
>>> group_label("Cc1ccc(NCCNCCO)c2c(=O)c3cc(O)ccc3sc12")
"no"
>>> group_label("O=c1ccc2ccccc2c2ccccc12")
"no"
>>> group_label("Clc1ccc2c(c1)N(CCCN1CCCC13CCCCC3)c1ccccc1S2")
"no"
>>> group_label("CN(C)CCNC(=O)c1cccc2c1Oc1c(cccc1[N+](=O)[O-])O2")
"no"
>>> group_label("O=c1nc2n(Cc3ccccc3)c3ccccc3nc-2c(=O)[nH]1")
"no"
>>> group_label("COc1cccc2c1C(=O)c1c(O)c3c(c(O)c1C2=O)C[C@@](O)(C(C)=O)C[C@@H]3OC1CC(OC(C)=O)C(OC(C)=O)C(C)O1 (stereo partly specified)")
"no"
>>> group_label("Cc1nc(Nc2ccccc2[N+](=O)[O-])sc1C(=O)CC(=O)C(=O)Nc1c(C(C)C)cccc1C(C)C")
"no"
>>> group_label("CCc1cc(O)c(Cl)c(C)c1Cl")
"no"
>>> group_label("CN(C)[C@@H]1C(=O)C(C(N)=O)=C(O)[C@@]2(O)C(=O)C3=C(O)c4c(O)cccc4C[C@H]3C[C@@H]12")
"no"
>>> group_label("O=C(NO)Nc1cc(Cl)cc(Cl)c1")
"no"
>>> group_label("O=C(O)CNC(=S)Nc1ccccc1")
"no"
>>> group_label("Cc1ccccc1N=C(NO)c1ccccc1")
"no"
>>> group_label("COc1cccc2c1C(=O)c1c(O)c3c(c(O)c1C2=O)CC(O)(C(O)CO)CC3OC1CC(N2CCOCC2)C(O)C(C)O1 (stereo unspecified)")
"yes"
>>> group_label("COc1cc2cc3c4cc(OC)c(OC)cc4cc[n+]3c(C)c2cc1OC")
"no"
>>> group_label("COc1cc2ccnc(-c3c4ccccc4c(N)c4c(OC)c(OC)ccc34)c2cc1OC")
"no"
>>> group_label("CN1C(=O)c2ccc3ccccc3c2C1=O")
"no"
>>> group_label("Nc1ncc(-c2ccc(Br)cc2)s1")
"no"
>>> group_label("CCOC(=O)C(Br)C(Br)c1ccccc1Cl (stereo unspecified)")
"no"
>>> group_label("CCCCc1ccc(-n2c(C)c(COC(=O)NC)c(COC(=O)NC)c2C)cc1")
"no"
>>> group_label("CN(C)CCNC(=O)c1cccc2cc([N+](=O)[O-])ccc12")
"no"
>>> group_label("CCOC(=O)COc1c(OC)cc(C2C3=C(COC3=O)Oc3cc4c(cc32)OCO4)cc1OC (stereo unspecified)")
"no"
>>> group_label("CC1SC2(C(=O)Nc3ccc(Cl)cc32)N(c2ccc(Cl)cc2)C1=O (stereo unspecified)")
"no"
>>> group_label("O=[N+]([O-])c1ccc(N/N=C/Cc2ccccc2)c([N+](=O)[O-])c1")
"no"
>>> group_label("O=[N+]([O-])c1cc(S(=O)(=O)Nc2ccccc2)ccc1Nc1ccccc1")
"no"
>>> group_label("COC(=O)C1(C)CCc2c(ccc3ccccc23)C1=O (stereo unspecified)")
"no"
>>> group_label("CC(C)(C)[Si](C)(C)OCC1CCC(n2cnc3c(NC(=O)c4ccccc4)ncnc32)O1 (stereo unspecified)")
"no"
>>> group_label("CCOC(=O)/C(=C\\c1ccc(C#N)cc1)C(C)=O")
"no"
>>> group_label("CCCCCCC(O)CNCc1ccnc2ccc(OC)cc12 (stereo unspecified)")
"no"
>>> group_label("Cc1cc(=O)oc2c(C)c3occc(=O)c3cc12")
"no"
>>> group_label("CCOc1ccccc1N=Cc1c2ccccc2cc2ccccc12")
"no"
>>> group_label("CCCOC(=O)C(F)C(Br)C(=O)OCCC (stereo unspecified)")
"no"
>>> group_label("COC(=O)/C=C(/C(=O)OC)C(Cl)(Cl)Cl")
"no"
>>> group_label("CCCCN(CCCC)C(=O)/C=C/c1ccccc1")
"no"
>>> group_label("OCC(CO)C(c1cccc2ccccc12)c1cccc2ccccc12")
"no"
>>> group_label("NC(N)=NS(=O)(=O)c1ccc(Nc2c3ccccc3nc3c(C(=O)NCCO)cccc23)cc1")
"no"
